Measured quantity: melting point

[[record]]
compound_string = "CC(C)(C)n1nnc(C(C=O)=C(c2ccc(F)cc2)c2ccc(F)cc2)n1"
value_observed = "131 to 133 °C"

[[record]]
compound_string = "O=C(O)CNC(=O)c1ccc([N+](=O)[O-])cc1[N+](=O)[O-]"
value_observed = "188 to 190 °C"

[[record]]
compound_string = "COc1ccc(N2CCN(c3ccc(N)nc3-c3ccc(C)cc3)CC2)cc1"
value_observed = "193 to 200 °C"

[[record]]
compound_string = "CCOC(=O)c1cc2cc(OCCCS(C)(=O)=O)cc(N(C)S(=O)(=O)c3ccccn3)c2[nH]1"
value_observed = "176 to 177 °C"

[[record]]
compound_string = "Nc1ccccc1Oc1c(C(=O)O)[nH]c2ccccc12"
value_observed = "217 to 218 °C"

